- assayed-target: GLP-1 receptor (GLP-1R), primary cAMP assay (human, UniProt P43220 24-463)
- assay-explanation: cell-based or functional assay
Starred links: 1 amine or outer side, 2 acyl side, 3 side chain; linkers in the order of their positions; H or OH if unused. Non-standard residues stand in square brackets, D forms with d. Groups on a side chain read outwards from the residue. Primed or numbered codes have the meaning given here. No end group written: not given here. *: point of attachment. Tyr(OMe) = COc1ccc(C[C@H](N[*:1])C(=O)[*:2])cc1; γGlu = O=C(O)[C@H](CCC(=O)[*:2])N[*:1]; Palmitoyl = CCCCCCCCCCCCCCCC(=O)*; αMeF = C[C@](N)(Cc1ccccc1)C(=O)O; αMeK = C[C@](N)(CCCCN)C(=O)O; Lauroyl = CCCCCCCCCCCC(=O)*; αMeS = C[C@](N)(CO)C(=O)O; PEG2′ = not defined here; Aib = CC(C)(N)C(=O)O
If the reported Primary assay EC50 (cAMP), n1 equals or exceeds 1000 pM, assign satisfied. If not, assign not satisfied.

Take a look at these entries with their results.
>>> group_label("H[Aib]EGS[αMeF]TSDV[αMeS]SYK([PEG2′-PEG2′-γGlu-Lauroyl])EGEAA[αMeK]EFIAWK([PEG2′-PEG2′-γGlu-Lauroyl])VEGG-NH2 [SEQ ID NO: 270]")
"not satisfied"
>>> group_label("H[Aib]EGTFTSDVSK([PEG2′-PEG2′-γGlu-Palmitoyl])YLEGEAAEEFIK([PEG2′-PEG2′-γGlu-Palmitoyl])FVVEGG-NH2 [SEQ ID NO: 244]")
"satisfied"
>>> group_label("H[Aib]EGS[αMeF]TSDVSK([PEG2′-PEG2′-γGlu-Palmitoyl])YLEGEAA[αMeK]EFIAWK([PEG2′-PEG2′-γGlu-Palmitoyl])VEGG-NH2 [SEQ ID NO: 255]")
"not satisfied"

Ask: Check the entry H[Aib]EGS[αMeF]TSDK([PEG2′-PEG2′-γGlu-Lauroyl])SSYLEGEAA[αMeK]EFIAK([PEG2′-PEG2′-γGlu-Lauroyl])VVEGG-NH2 [SEQ ID NO: 257] : does Primary assay EC50 (cAMP), n1 equal or exceed 1000 pM?
Result: not satisfied

Ask: Check the entry H[Aib]EGTFTSDVSK([PEG2′-PEG2′-γGlu-Palmitoyl])FLEGEAAEEFIK([PEG2′-PEG2′-γGlu-Palmitoyl])WVVEGG-NH2 [SEQ ID NO: 243] : does Primary assay EC50 (cAMP), n1 equal or exceed 1000 pM?
Result: satisfied

Ask: Check the entry H[Aib]EGS[αMeF]TSDV[αMeS]SK([PEG2′-PEG2′-γGlu-Palmitoyl])LEGEAA[αMeK]EFIAK([PEG2′-PEG2′-γGlu-Palmitoyl])VVEGG-NH2 [SEQ ID NO: 266] : does Primary assay EC50 (cAMP), n1 equal or exceed 1000 pM?
Result: not satisfied

Ask: Check the entry H[Aib]EGS[αMeF]TSDK([PEG2′-PEG2′-γGlu-Palmitoyl])SSYLEGEAA[αMeK]EFIAWK([PEG2′-PEG2′-γGlu-Palmitoyl])VEGG-NH2 [SEQ ID NO: 261] : does Primary assay EC50 (cAMP), n1 equal or exceed 1000 pM?
Result: not satisfied

Ask: Check the entry H[Aib]EGS[αMeF]TSDVSK([PEG2′-PEG2′-γGlu-Palmitoyl])FLEGEAAEEFIK([PEG2′-PEG2′-γGlu-Palmitoyl])FVVEGG-NH2 [SEQ ID NO: 247] : does Primary assay EC50 (cAMP), n1 equal or exceed 1000 pM?
Result: satisfied

Ask: Check the entry H[Aib]EGS[αMeF]TSDV[αMeS]SK([PEG2′-PEG2′-γGlu-Lauroyl])LEGEAA[αMeK]E[Tyr(OMe)]IAK([PEG2′-PEG2′-γGlu-Lauroyl])VVEGG-NH2 [SEQ ID NO: 406] : does Primary assay EC50 (cAMP), n1 equal or exceed 1000 pM?
Result: not satisfied
